The origin of these recorded values is patent US20100092526A1.

Exercise: state measured MIC for each of the compounds provided.
Tested on: Stenotrophomonas maltophilia
experimentalDetails: MIC/MBC against CF isolates (CLSI, alamar blue)
assayContext: Stenotrophomonas maltophilia, CF Stenotrophomonas isolate Steno 6
Output spec: scalar in µg/mL, unitless text.

Ask: GET /values?readout=MIC&item= `CC(C)(O/N=C(\C(=O)N[C@@H]1C(=O)N2C(C(=O)[O-])=C(C[n+]3ccccc3)CS[C@H]12)c1csc(N)n1)C(=O)O`
Reply: 32

Ask: Thanks! And `NC[C@H]1O[C@H](O[C@H]2[C@H](O)[C@@H](O[C@H]3O[C@H](CO)[C@@H](O)[C@H](N)[C@H]3O)[C@H](N)C[C@@H]2N)[C@H](N)C[C@@H]1O` ?
Reply: 16

Ask: Thanks! And `C[C@H]1COc2c(N3CCN(C)CC3)c(F)cc3c(=O)c(C(=O)O)cn1c23` ?
Reply: 2

Ask: Thanks! And `CO[C@@]1(NC(=O)Cc2cccs2)C(=O)N2C(C(=O)O)=C(COC(N)=O)CS[C@@H]21` ?
Reply: 128

###

System: Pseudomonas aeruginosa
experimentalDetails: MIC/MBC against CF isolates (CLSI, alamar blue)
assayContext: Pseudomonas aeruginosa, CF Pseudomonas isolate NB11
endpoint: MIC

Ask: GET /values?readout=MIC&system=Pseudomonas aeruginosa&item= `C[C@@H](O)[C@H]1C(=O)N2C(C(=O)O)=C(SCCN=CN)C[C@H]12`
Reply: 2 µg/mL

Ask: Thanks! And `CO[C@@]1(NC(=O)Cc2cccs2)C(=O)N2C(C(=O)O)=C(COC(N)=O)CS[C@@H]21` ?
Reply: > 256 µg/mL

Ask: Thanks! And `NC[C@H]1O[C@H](O[C@H]2[C@H](O)[C@@H](O[C@H]3O[C@H](CO)[C@@H](O)[C@H](N)[C@H]3O)[C@H](N)C[C@@H]2N)[C@H](N)C[C@@H]1O` ?
Reply: 2 µg/mL

Ask: Thanks! And `C[C@H]1COc2c(N3CCN(C)CC3)c(F)cc3c(=O)c(C(=O)O)cn1c23` ?
Reply: 8 µg/mL

###

Exercise: state measured MBC for each of the compounds provided.
Tested on: Pseudomonas aeruginosa
experimentalDetails: MIC/MBC against CF isolates (CLSI, alamar blue)
assayContext: Pseudomonas aeruginosa, CF Pseudomonas isolate NB11
Output spec: scalar in µg/mL, unitless text.

Ask: GET /values?readout=MBC&item= C[C@@H](O)[C@H]1C(=O)N2C(C(=O)O)=C(SCCN=CN)C[C@H]12 [Imipenem]
Reply: 8

Ask: Thanks! And NC[C@H]1O[C@H](O[C@H]2[C@H](O)[C@@H](O[C@H]3O[C@H](CO)[C@@H](O)[C@H](N)[C@H]3O)[C@H](N)C[C@@H]2N)[C@H](N)C[C@@H]1O [Tobramycin] ?
Reply: 4

Ask: Thanks! And C[C@H]1COc2c(N3CCN(C)CC3)c(F)cc3c(=O)c(C(=O)O)cn1c23 [Levofloxacin] ?
Reply: 16

###

Exercise: state measured MBC for each of the compounds provided.
Tested on: Stenotrophomonas maltophilia
experimentalDetails: MIC/MBC against CF isolates (CLSI, alamar blue)
assayContext: Stenotrophomonas maltophilia, CF Stenotrophomonas isolate Steno 4
Output spec: scalar in µg/mL, unitless text.

Ask: GET /values?readout=MBC&item= C[C@H]1COc2c(N3CCN(C)CC3)c(F)cc3c(=O)c(C(=O)O)cn1c23 [Levofloxacin]
Reply: 2

Ask: Thanks! And CO[C@@]1(NC(=O)Cc2cccs2)C(=O)N2C(C(=O)O)=C(COC(N)=O)CS[C@@H]21 [Cefoxitin] ?
Reply: 256

Ask: Thanks! And CC(C)(O/N=C(\C(=O)N[C@@H]1C(=O)N2C(C(=O)[O-])=C(C[n+]3ccccc3)CS[C@H]12)c1csc(N)n1)C(=O)O [Ceftazidime] ?
Reply: 16
